# studySystem: human BACE1 (Homo sapiens, UniProt P56817)
# Sequence (P56817 46-501): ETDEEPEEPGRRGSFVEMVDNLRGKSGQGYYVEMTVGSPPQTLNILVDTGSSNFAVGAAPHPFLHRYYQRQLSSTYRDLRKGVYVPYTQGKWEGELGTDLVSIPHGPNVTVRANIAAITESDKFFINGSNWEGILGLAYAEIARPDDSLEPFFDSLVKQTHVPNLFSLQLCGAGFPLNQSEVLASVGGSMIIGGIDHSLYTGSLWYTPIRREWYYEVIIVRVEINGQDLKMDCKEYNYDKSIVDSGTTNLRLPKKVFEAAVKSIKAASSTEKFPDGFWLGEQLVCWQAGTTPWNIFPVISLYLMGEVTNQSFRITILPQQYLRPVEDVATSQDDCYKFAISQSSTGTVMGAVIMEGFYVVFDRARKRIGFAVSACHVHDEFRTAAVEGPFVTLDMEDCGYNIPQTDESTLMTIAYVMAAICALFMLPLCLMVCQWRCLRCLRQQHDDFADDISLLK
# methodSummary: Fluorescent kinetic assay, evaluation of BACE1 binding affinity of test compounds
# Format: biochemical
# runConditions: 10 nM human BACE1, 25 μM substrate WABC-6, pH 4.5, room temperature; read-out: BACE1 IC50
observedProperty: IC50

Recorded IC50, per entry:
molecule | IC50
CN1C(=O)[C@@](c2ccc(F)c(C#CC3CC3)c2)(c2ccc(OC(F)F)c(CCF)c2)N=C1N (single isomer, unassigned) [Example 94] | 110 to 1000 nM
Cc1cc([C@@]2(c3ccc(F)cc3)N=C(N)N(C)C2=O)ccc1OC(F)F [Example 4B] | 110 to 1000 nM
CN1C(=O)C(c2ccccc2)(c2ccc(OC(F)F)c(CCO)c2)N=C1N (stereo not drawn) [Example 140] | 110 to 1000 nM
CN1C(=O)C(c2ccc(F)c(OCCCF)c2)(c2ccc(OC(F)F)c(C3CC3)c2)N=C1N (stereo not drawn) [Example 85] | < 100 nM
CCCOc1cccc(C2(c3ccc(OC(F)F)c(C)c3)N=C(N)N(C)C2=O)c1 (stereo not drawn) [Example 44] | < 100 nM
Cc1cc(C2(c3cccc(OCCC(F)F)c3)N=C(N)N(C)C2=O)ccc1OC(F)F (stereo not drawn) [Example 126] | < 100 nM
CN1C(=O)[C@@](c2ccccc2)(c2ccc(OC(F)F)c(CCCl)c2)N=C1N [Example 144] | > 1000 nM
CCCCOc1cccc(C2(c3ccc(OC(F)F)c(Cl)c3)N=C(N)N(C)C2=O)c1 (stereo not drawn) [Example 35] | < 100 nM

Okay, next one:
query: Could you share which IC50 value was measured for CCc1cc(C2(c3ccc(F)c(C#CCC(C)C)c3)N=C(N)N(C)C2=O)ccc1OC(F)F (stereo not drawn) [Example 149] ?
result: 110 to 1000 nM
